# System: Escherichia coli TOP10
# ASSAY METHOD TEXT: shrunken log2 fold change of peptide-encoding DNA abundance (4.5 h post-induction vs induction); higher = less antimicrobial activity (less host growth inhibition)
# COND: time post-induction: 4.5 h; library: site-saturation at positions 5, 18, 19, 20
Provide the reported shrunken log2 fold change of each item.
Output spec: single numeric token, no unit.

Hey, Escherichia coli TOP10 data for RRIRGRPPRLPRPRPRPLHIPRP : shrunken log2 fold change came out at 0.105

Hey, Escherichia coli TOP10 data for RRIRARPPRLPRPRPRPGQAPRP : shrunken log2 fold change came out at -0.0216

Hey, Escherichia coli TOP10 data for RRIRGRPPRLPRPRPRPDEAPRP : shrunken log2 fold change came out at 1.56

Hey, Escherichia coli TOP10 data for RRIRSRPPRLPRPRPRPPPTPRP : shrunken log2 fold change came out at 0.914

Hey, Escherichia coli TOP10 data for RRIRPRPPRLPRPRPRPPMGPRP : shrunken log2 fold change came out at 0.325

Hey, Escherichia coli TOP10 data for RRIRKRPPRLPRPRPRPRREPRP : shrunken log2 fold change came out at 0.853

Hey, Escherichia coli TOP10 data for RRIRHRPPRLPRPRPRPTCWPRP : shrunken log2 fold change came out at -0.0322

Hey, Escherichia coli TOP10 data for RRIRGRPPRLPRPRPRPLRKPRP : shrunken log2 fold change came out at 1.12

* * *

# System: Escherichia coli TOP10;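 note: peptides expressed intracellularly from a pBAD plasmid library in pooled LB shake-flask culture, induced with 0.3% L-arabinose, DNA abundance read by NGS, three biological replicates, DESeq2 with apeglm shrinkage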
# ASSAY METHOD TEXT: shrunken log2 fold change of peptide-encoding DNA abundance (4.5 h post-induction vs induction); higher = less antimicrobial activity (less host growth inhibition)
# COND: time post-induction: 4.5 h; library: site-saturation at positions 5, 18, 19, 20
Provide the reported shrunken log2 fold change of each item.
Output spec: single numeric token, no unit.

Hey, Escherichia coli TOP10 data for RRIRPRPPRLPRPRPRPTDVPRP : shrunken log2 fold change came out at 0.35

Hey, Escherichia coli TOP10 data for RRIRLRPPRLPRPRPRPQQKPRP : shrunken log2 fold change came out at -0.167

Hey, Escherichia coli TOP10 data for RRIRIRPPRLPRPRPRPFKSPRP : shrunken log2 fold change came out at -0.023

Hey, Escherichia coli TOP10 data for RRIRPRPPRLPRPRPRPTIKPRP : shrunken log2 fold change came out at -0.313

Hey, Escherichia coli TOP10 data for RRIRLRPPRLPRPRPRPLCSPRP : shrunken log2 fold change came out at -0.223

Hey, Escherichia coli TOP10 data for RRIRYRPPRLPRPRPRPLDWPRP : shrunken log2 fold change came out at 0.171

Hey, Escherichia coli TOP10 data for RRIRTRPPRLPRPRPRPKHRPRP : shrunken log2 fold change came out at -0.191

Hey, Escherichia coli TOP10 data for RRIRFRPPRLPRPRPRPERPPRP : shrunken log2 fold change came out at 0.415

Hey, Escherichia coli TOP10 data for RRIRDRPPRLPRPRPRPIARPRP : shrunken log2 fold change came out at 0.199

Hey, Escherichia coli TOP10 data for RRIRPRPPRLPRPRPRPKHLPRP : shrunken log2 fold change came out at -0.355

Hey, Escherichia coli TOP10 data for RRIRHRPPRLPRPRPRPVLGPRP : shrunken log2 fold change came out at 0.463

Hey, Escherichia coli TOP10 data for RRIRPRPPRLPRPRPRPVYGPRP : shrunken log2 fold change came out at -0.486

Hey, Escherichia coli TOP10 data for RRIRWRPPRLPRPRPRPKFTPRP : shrunken log2 fold change came out at -0.119

Hey, Escherichia coli TOP10 data for RRIRHRPPRLPRPRPRPADKPRP : shrunken log2 fold change came out at -0.245

Hey, Escherichia coli TOP10 data for RRIRARPPRLPRPRPRPGGSPRP : shrunken log2 fold change came out at 0.535
